Molecular target: PERK (Homo sapiens)
Assay: PERK enzyme assay (HTRF)
Format: biochemical
Details: 500 μM ATP; at least one experimental run; read-out: PERK Enzyme (500 μM ATP) IC50
Overview of recorded pIC50 for various compounds
Lab note: report pIC50 as minus log10 of the concentration in molar units, number only.

compound="CN1C(=O)N(c2ccc(-c3cn(C)c4ncnc(N)c34)c(F)c2)CC1c1ccncc1 (centres unmarked)" assayed_system="PERK (Homo sapiens)" metric=pIC50 meas_value=5.70
compound="CC(C)CN1C(=O)N(c2ccc(-c3cn(C)c4ncnc(N)c34)c(F)c2)CC1c1cc(F)ccc1F (centres unmarked)" assayed_system="PERK (Homo sapiens)" metric=pIC50 meas_value=6.04
compound="Cc1nc(N)c2c(-c3ccc(N4CC(c5ccc(F)cc5F)N(C)C4=O)cc3F)cn(C)c2n1 (single isomer, unassigned)" assayed_system="PERK (Homo sapiens)" metric=pIC50 meas_value=7.06
compound="Cn1cc(-c2ccc(N3CC(c4cc(F)ccc4F)N(Cc4ccccc4)C3=O)cc2F)c2c(N)ncnc21 (centres unmarked)" assayed_system="PERK (Homo sapiens)" metric=pIC50 meas_value=5.44

Now, please, on to the next compound.
Item CN1C(=O)N(c2ccc(-c3cn(C4CC4)c4ncnc(N)c34)c(F)c2)CC1c1ccccc1 (single isomer, unassigned) was tested on PERK (Homo sapiens); the reported pIC50 is 8.40

---

Target: PERK (Homo sapiens, UniProt Q9NZJ5)
Sequence (Q9NZJ5 30-1116): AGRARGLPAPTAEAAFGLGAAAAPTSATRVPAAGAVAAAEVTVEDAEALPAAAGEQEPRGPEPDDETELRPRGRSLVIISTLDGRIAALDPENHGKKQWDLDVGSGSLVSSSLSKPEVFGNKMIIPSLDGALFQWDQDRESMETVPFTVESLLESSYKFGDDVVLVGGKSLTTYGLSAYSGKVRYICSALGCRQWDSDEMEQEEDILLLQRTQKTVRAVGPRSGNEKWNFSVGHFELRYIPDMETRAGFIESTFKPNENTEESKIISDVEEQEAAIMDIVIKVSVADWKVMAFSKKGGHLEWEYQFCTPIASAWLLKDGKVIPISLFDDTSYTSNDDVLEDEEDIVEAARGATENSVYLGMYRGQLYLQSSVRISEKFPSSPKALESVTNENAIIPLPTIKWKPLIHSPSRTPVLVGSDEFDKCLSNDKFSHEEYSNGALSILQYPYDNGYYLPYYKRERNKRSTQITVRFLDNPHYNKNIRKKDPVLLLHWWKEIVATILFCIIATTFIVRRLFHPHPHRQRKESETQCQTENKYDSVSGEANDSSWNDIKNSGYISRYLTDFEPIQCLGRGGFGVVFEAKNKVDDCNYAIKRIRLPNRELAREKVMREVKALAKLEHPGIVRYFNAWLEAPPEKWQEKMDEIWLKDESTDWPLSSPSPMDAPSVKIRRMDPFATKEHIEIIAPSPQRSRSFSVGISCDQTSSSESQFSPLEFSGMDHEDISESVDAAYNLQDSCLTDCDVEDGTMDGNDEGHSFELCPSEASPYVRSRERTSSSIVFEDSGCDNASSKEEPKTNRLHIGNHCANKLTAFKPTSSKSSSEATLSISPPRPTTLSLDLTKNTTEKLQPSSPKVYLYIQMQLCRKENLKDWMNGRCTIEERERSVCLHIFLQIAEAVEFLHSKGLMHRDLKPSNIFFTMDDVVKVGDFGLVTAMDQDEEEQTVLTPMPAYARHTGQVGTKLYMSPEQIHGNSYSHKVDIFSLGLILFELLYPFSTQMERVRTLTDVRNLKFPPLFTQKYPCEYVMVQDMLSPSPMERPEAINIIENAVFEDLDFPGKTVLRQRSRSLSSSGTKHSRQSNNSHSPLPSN
Test: PERK enzyme assay (HTRF)
Assay type: biochemical
Settings: PERK Enzyme (500 μM ATP) IC50; at least one experimental run; read-out: PERK Activity
metric: IC50

Below: 4 compounds and their reported IC50.
compound="CN1C(=O)N(c2ccc(-c3cn(CC(F)(F)F)c4ncnc(N)c34)c(F)c2)CC1c1ccc(F)cc1F (stereo not drawn) [Example 82]" meas_value="0.1 to 1 µM"
compound="CCN1C(=O)N(c2ccc(-c3cn(C)c4ncnc(N)c34)c(F)c2)CC1c1cc(F)cc(C(F)(F)F)c1 (stereo not drawn) [Example 85]" meas_value="0.1 to 1 µM"
compound="Cc1nc(N)c2c(-c3ccc(N4CC(c5ccc(Cl)nc5)N(C)C4=O)cc3F)cn(C)c2n1 (stereo not drawn) [Example 135]" meas_value="< 0.1 µM"
compound="CN1C(=O)N(c2ccc(-c3nn(C)c4ncnc(N)c34)c(F)c2)CC1c1ccc(F)cc1F (stereo not drawn) [Example 99]" meas_value="< 0.1 µM"

Item Cc1nc(N)c2c(-c3ccc(N4CC(c5ccc(F)cc5)N(C)C4=O)cc3F)cn(C3CC3)c2n1 (single isomer, unassigned) [Example 90] was tested on PERK (Homo sapiens, UniProt Q9NZJ5); the reported IC50 is < 0.1 µM

Item Cc1nc(N)c2c(-c3ccc(N4CC(c5cc(F)ccc5F)N(C)C4=O)cc3F)cn(C)c2n1 (stereo not drawn) [Example 15] was tested on PERK (Homo sapiens, UniProt Q9NZJ5); the reported IC50 is < 0.1 µM
